experiment: Primary qHTS for inhibitors of nuclear receptor binding SET domain protein 2 (NSD2) in an RCH-ACV wild type WT cells (2C) (AID 1645877); conditions: RCH-ACV (leukaemia line) NSD2 WT (2C) viability, CellTiter-Glo, 72 h; series mostly up to 44.9 µM; note: nearly all actives have a fitted effect of over 70% in size
Inconclusive results are not listed. Calls of active or inactive are those of the source. Calls come from the whole dose curve; as a rule, active = well fitted inhibition curve with a large enough effect; inconclusive = small, poorly fitted or top-dose-only effect; inactive = no such curve, though single readings can be large or run the other way.
Possible outcomes: YES for active, NO for inactive

compound=O=C(C1CC1)N1CC[C@@H](Cn2c(-c3ccc(-c4ccc5occc5c4)cc3)nc3cnccc32)C1 classification=YES
compound=CN[C@@H](C)C(=O)N[C@H]1CCCC[C@H]2CC[C@@H](C(=O)N[C@@H](c3ccccc3)c3cn(CCCCc4ccc(CCCCn5cc([C@@H](NC(=O)[C@@H]6CC[C@@H]7CCCC[C@H](NC(=O)[C@H](C)NC)C(=O)N76)c6ccccc6)nn5)cc4)nn3)N2C1=O classification=NO
compound=CN(C)c1ccc(Nc2nc(N)n(C(=O)c3c(F)cccc3F)n2)cc1 classification=YES
compound=c1ccc(-c2nn3c(c2-c2ccnc4cc(OCCN5CCOCC5)ccc24)CCC3)nc1 classification=YES
compound="COc1ccc(CC2=NN3C([C@@H](CCc4ccccc4)[C@@H](C)O)=NC(C)C3C(=O)N2)cc1OC (stereo partly specified)" classification=NO
compound=CC(C)OC(=O)C1=CN(C(=O)c2ccc(F)c(F)c2)CC(C)(C)c2c1[nH]c1ccccc21 classification=NO

Where do these numbers come from? They come from PubChem BioAssay (NCATS).
